Experiment: Cell viability of COLO 205 cells (EZ4U)
Assay type: cell-based
Details: human, COLO 205 cells (colon adenocarcinoma), 1 mM HTB, 24 hours, read-out: Percentage of cell viability
Method: Several cell lines obtained from the American Type Culture Collection (ATCC) were cultured at 37° C. and under a 5% CO2 atmosphere. Each cell line was grown in an appropriate culture medium and within the exponential phase (Table I). […] The absorbance was also determined at 620 nm as a measure of the existing non-specific value.
REPORTED PROPERTY: viability at 24 h, 1 mM (%)

                                   molecule  obs_value
0  O=C(O)c1ccc(C(F)(F)F)cc1O [HTB, 2-hydroxy-4-trifluoromethylbenzoic acid]       64.8
